# Test system: PXR:RXRa (NR concentration 270 nM, RXRa partner concentration 90 nM)
# Method summary: PBM binding z-score (relative to random genomic background probes); higher = stronger binding; sequences stand for … in GC…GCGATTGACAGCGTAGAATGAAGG
Please provide measured PBM binding z-score for the entries that follow.
Numbers only.

Give measured PBM binding z-score for every item shown.
1. AATACAGGGTTACTAGGCCAGAGTAGGTACGAAT
2. CCTACGGGGCCAAAAAGGTCATTGATGCCGATAA
3. CCTACTGGGCCATTCAGAGGCCATTGATCATATG
4. AGTCAAAGTTCAGGACGAGGTTACGTAAAGCACG
5. GCTATCAGGCCATTTGGGTCACTCAATGACGGGC
6. TCTGCTAGGTCAGTTGGTCAGCTATCGAGCTGCC

1: 0.457; 2: 5.34; 3: -0.174; 4: 4.73; 5: 1.01; 6: 0.289

Record PBM binding z-score per entry; entries follow.
1. CCGCGGAGGACAGAAGGTCAGAGCTGTCCGCTTT
2. CCTGCTAAGTCAATGGTCAGCTAAAGCAGCTCGC
3. TAGCCTAGGTCAGATCGGGCCAGGATACGCTATA

1. 1.42
2. -0.405
3. 0.771

Each of the following entries comes with a recorded value; kindly state PBM binding z-score for each.
1. CCTTACGGGTCAAGGTTATAGCACGGGTGGTACG
2. AGAACGAGGGCACGCTGAGTTGATAGCAGAGTAG
3. TCTAGCAGGCCAGAGAGTCACTCAAGAGGTACGG

1: 3.2; 2: 1.28; 3: -0.468

Batch lookup, PBM binding z-score per entry.
1. CCTACTGGGCCATCACGTCATTGATATCAACGTT
2. ATCTCTAGGTAAGACTCAGTTCAGTGTAGAACGC
3. GATACAGGGTCAAGGCCCGAGTACGCGTATTGAT

1. -0.248
2. 1.15
3. 3.48

###

# System: LXRa:RXRa (NR concentration 270 nM, RXRa partner concentration 90 nM)
# Method summary: PBM binding z-score (relative to random genomic background probes); higher = stronger binding; sequences stand for … in GC…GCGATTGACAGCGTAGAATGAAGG
Measurement name: PBM binding z-score
One number for each entry.

Some sequences with recorded PBM binding z-score:
Entry sequence: CCTTACGGCTCACGAGGTTATAGCACGACGAGCG
Tested target: LXRa:RXRa (NR concentration 270 nM, RXRa partner concentration 90 nM)
Measurement name: PBM binding z-score
Quantitative result: 0.723

Entry sequence: CGAACTAGGTCATCCAGGACAGAGAATACATTGA
Tested target: LXRa:RXRa (NR concentration 270 nM, RXRa partner concentration 90 nM)
Measurement name: PBM binding z-score
Quantitative result: 2.74

Entry sequence: CGTCCAAGGTCAAAGGTGAGTGAAGAGATGACGG
Tested target: LXRa:RXRa (NR concentration 270 nM, RXRa partner concentration 90 nM)
Measurement name: PBM binding z-score
Quantitative result: 5.66

Entry sequence: CTCGAAAGGTCGTGCTCAAGTGAGTATACCAAAC
Tested target: LXRa:RXRa (NR concentration 270 nM, RXRa partner concentration 90 nM)
Measurement name: PBM binding z-score
Quantitative result: 3.95

Entry sequence: CGTCAAAGTGCAAGGTAACGTAACAGAAAGCAGC
Tested target: LXRa:RXRa (NR concentration 270 nM, RXRa partner concentration 90 nM)
Measurement name: PBM binding z-score
Quantitative result: 0.219

# next sequence below
Field request: PBM binding z-score | item: CAAACTAGTTCAAGGTCAAAGTCGGTTTGTGCCA
5.81
